Assignment: determine reported Activity for the given molecules.
- Tested on: Cucumis sativus
- assay.protocol: Inhibition of Cucumis sativus (cucumber) growth assessed as stem length of first leaf of seedlings measured as growth rate at 125 ug/ml for 24 hr relative to control
- Assay type: functional
- Parameters: scale not given: the % may be the effect or the level left

Below: 5 molecules and their reported Activity.
* CC(C)[C@H]1CC[C@@H](Cc2ccc(Cl)cc2)[C@]1(O)Cn1cncn1 | 117%
* CC(C)C[C@H]1CC[C@@H](Cc2ccc(Cl)cc2)[C@]1(O)Cn1cncn1 | 104%
* CCCC[C@H]1CC[C@@H](Cc2ccc(Cl)cc2)[C@]1(O)Cn1cncn1 | 117%
* CCCC[C@@H]1CC[C@H](Cc2ccc(Cl)cc2)[C@@]1(O)Cn1cncn1 | 121%
* CC[C@@H]1CC[C@H](Cc2ccc(Cl)cc2)[C@@]1(O)Cn1cncn1 | 100%

Each of the following entries comes with a recorded value; kindly state Activity for each.
1. CC(C)C[C@@H]1CC[C@H](Cc2ccc(Cl)cc2)[C@@]1(O)Cn1cncn1
2. O[C@]1(Cn2cncn2)CCC[C@@H]1Cc1ccc(Cl)cc1

Reply:
109%
80%

Need Activity for each of these molecules.
1. CC[C@@H]1CC[C@@H](Cc2ccc(Cl)cc2)[C@]1(O)Cn1cncn1
2. CCC[C@H]1CC[C@@H](Cc2ccc(Cl)cc2)[C@]1(O)Cn1cncn1
3. CC(C)[C@H]1CC[C@H](Cc2ccc(Cl)cc2)[C@@]1(O)Cn1cncn1
4. C[C@H]1CC[C@@H](Cc2ccc(Cl)cc2)[C@]1(O)Cn1cncn1
5. C[C@@H]1CC[C@H](Cc2ccc(Cl)cc2)[C@@]1(O)Cn1cncn1
6. CC(C)[C@@H]1CC[C@@H](Cc2ccc(Cl)cc2)[C@]1(O)Cn1cncn1

Reply:
1: 110%; 2: 104%; 3: 113%; 4: 97%; 5: 43%; 6: 104%

So for CC(C)[C@@H]1CC[C@H](Cc2ccc(Cl)cc2)[C@@]1(O)Cn1cncn1 , the logged Activity turned out to be 118%

----------
- Test system: Sclerotinia sclerotiorum
- assay.protocol: Antifungal activity against Sclerotinia sclerotiorum on potato sucrose agar medium at 28 or 20 degC for 2 or 3 days
- Format: functional
Exercise: for every item that follows, state its recorded MIC.

Each compound below has a reported value. Please supply its MIC.
1. CCC[C@H]1CC[C@@H](Cc2ccc(Cl)cc2)[C@]1(O)Cn1cncn1
2. CC(C)[C@@H]1CC[C@H](Cc2ccc(Cl)cc2)[C@@]1(O)Cn1cncn1
3. CC[C@H]1CC[C@H](Cc2ccc(Cl)cc2)[C@@]1(O)Cn1cncn1

Reply:
1. > 100 µg/mL
2. < 0.2 µg/mL
3. < 0.2 µg/mL

I have 4 compounds here; please give me MIC for each one.
1. C[C@H]1CC[C@@H](Cc2ccc(Cl)cc2)[C@]1(O)Cn1cncn1
2. CCCC[C@H]1CC[C@@H](Cc2ccc(Cl)cc2)[C@]1(O)Cn1cncn1
3. CC(C)C[C@@H]1CC[C@H](Cc2ccc(Cl)cc2)[C@@]1(O)Cn1cncn1
4. CC(C)C[C@H]1CC[C@@H](Cc2ccc(Cl)cc2)[C@]1(O)Cn1cncn1

Reply:
1: > 100 µg/mL; 2: > 100 µg/mL; 3: 3.1 µg/mL; 4: > 100 µg/mL

Give one value of MIC per listed compound.
1. CCC[C@@H]1CC[C@H](Cc2ccc(Cl)cc2)[C@@]1(O)Cn1cncn1
2. CC(C)[C@@H]1CC[C@@H](Cc2ccc(Cl)cc2)[C@]1(O)Cn1cncn1
3. O[C@@]1(Cn2cncn2)CCC[C@H]1Cc1ccc(Cl)cc1
4. O[C@]1(Cn2cncn2)CCC[C@@H]1Cc1ccc(Cl)cc1

Reply:
1: 3.1 µg/mL; 2: > 100 µg/mL; 3: > 100 µg/mL; 4: 13 µg/mL

Documented MIC of CC(C)[C@H]1CC[C@@H](Cc2ccc(Cl)cc2)[C@]1(O)Cn1cncn1 : 50 µg/mL

----------
- Test system: Monilinia fructicola
- assay.protocol: Antifungal activity against Monilinia fructicola on potato sucrose agar medium at 28 or 20 degC for 2 or 3 days
- Format: functional
readout.name: MIC

Worked examples follow.
• CC(C)[C@@H]1CC[C@H](Cc2ccc(Cl)cc2)[C@@]1(O)Cn1cncn1 = < 0.2 µg/mL
• CC(C)C[C@H]1CC[C@@H](Cc2ccc(Cl)cc2)[C@]1(O)Cn1cncn1 = > 100 µg/mL

Item: CC[C@@H]1CC[C@H](Cc2ccc(Cl)cc2)[C@@]1(O)Cn1cncn1 | MIC: < 0.2 µg/mL
